compounds and their reported Growth Rate
- Test system: Fibroblast
- ASSAY TEXT: Incucyte cell viability with human fibroblast; further: unitless GR value; below 1 slowed growth and below 0 cell loss
- Assay type: toxicity, cell-based
- MEASUREMENT CONDITIONS: 6 h, 10 µM, compound concentration 10 uM, replicate number 2
Form field (numeric): enter value without unit.

// solved cases for Growth Rate follow
COc1ccc(Cl)cc1[C@]1(F)C(=O)Nc2cc(C(F)(F)F)ccc21
-1
C[C@H](CCC(=O)[O-])[C@H]1CC[C@H]2[C@@H]3[C@@H](O)C[C@@H]4C[C@H](O)CC[C@]4(C)[C@H]3CC[C@]12C.[Na+]
0.93
Cc1cnc(Nc2ccc(C(=O)N3CCN(C)CC3)cc2)nc1N[C@@H]1CCC[C@@H]1C(N)=O
0.31

Here's the next entry for you.
Value lookup for Growth Rate; key = `CN(C)C/C=C/C(=O)Nc1cccc(C(=O)Nc2ccc(Nc3nccc(-c4cccnc4)n3)cc2)c1`
0.47
